Assay: Crystalline stability test under accelerated ICH storage conditions (XRPD)
Format: physicochemical
Conditions: after 4 weeks
measurement-label: Crystalline stability study 40 °C/ 75 ± 5 % RH After 4 weeks

Answered cases to consult:
>  <molecule>
NCC(CC(=O)O)c1ccc(Cl)cc1.NCC(CC(=O)O)c1ccc(Cl)cc1.O=C(O)C=CC(=O)O (stereo not drawn) [Form VII]

>  <result>
Unstable

$$$$
>  <molecule>
COc1cc(C=CC(=O)O)ccc1O.NCC(CC(=O)O)c1ccc(Cl)cc1 [Form XII]

>  <result>
Stable

$$$$
>  <molecule>
NCC(CC(=O)O)c1ccc(Cl)cc1.O=C(O)C=Cc1ccccc1 (stereo not drawn) [Form III]

>  <result>
Stable

$$$$
>  <molecule>
NCC(CC(=O)O)c1ccc(Cl)cc1.NCC(CC(=O)O)c1ccc(Cl)cc1.O=C(O)c1ccccc1 (stereo not drawn) [Form II]

>  <result>
Stable

$$$$

get_value(item= NCC(CC(=O)O)c1ccc(Cl)cc1.O=C(O)c1ccccc1O (stereo not drawn) [Form VIII] , readout=Crystalline stability study 40 °C/ 75 ± 5 % RH After 4 weeks) returns Stable

Just so you know, measured Crystalline stability study 40 °C/ 75 ± 5 % RH After 4 weeks for COc1cc(C=O)ccc1O.NCC(CC(=O)O)c1ccc(Cl)cc1.NCC(CC(=O)O)c1ccc(Cl)cc1 (stereo not drawn) [Form IX] came out at Unstable
